test system: MS2 coat protein; test: apparent KD of MS2 coat protein, switch OFF state (with FMN for OFF switches, without FMN for ON switches); designed switch direction (-1 OFF switch, 1 ON switch): -1; higher = weaker reporter binding; settings: FMN input: 0 or 200 uM; Eterna round: R93 (includes R88 designs)
I'd appreciate it if you could supply apparent KD of MS2 coat protein values for the items below.
Answer in nM, number only, no unit symbol.

Look at this sequence and give its reported apparent KD of MS2 coat protein. AGUUGGCGAGGAUAUACAUGAGGAUCACCCAUGUAAAAUAAAUAAAAAAUAAGGGAAAGUAGAAGGCGCUGACA [73%, Moding Norbert Elias, 14]
112

Look at this sequence and give its reported apparent KD of MS2 coat protein. AAAGAUGGAGGAUAUACAUGAGGAUCACCCAUGUAGAAAAAAAAUUGGGAAAAAGAAAGUAGAAGGCCAAAAAA [Ex 3 May 43]
72.9

Look at this sequence and give its reported apparent KD of MS2 coat protein. AAAAAACAUGAGGAUCACCCAUGUAAGGAUAUGCGAUGGAAAAUAAAAAUAAAACAUAGCAGAAGGUACACCAA [Amethyst 82]
28.2

* * *

I'd appreciate it if you could supply apparent KD of MS2 coat protein values for the items below.
test system: MS2 coat protein; assay: apparent KD of MS2 coat protein; designed switch direction (-1 OFF switch, 1 ON switch): 1; higher = weaker reporter binding; settings: input ligand: microRNA oligo, concentration not stated
Answer in nM, number only, no unit symbol.

Look at this sequence and give its reported apparent KD of MS2 coat protein. AGCACUUCAGAAGGAUAUGAGAUGCUAAGCAUCUUAGAAGGUCUGCCGUAAAGAAACGUCCACAUGAGGAUCACCCAUGUUGCA [Eternabot solution 28] (Eterna round: R96, puzzle: Same State NG 1)
21.9

Look at this sequence and give its reported apparent KD of MS2 coat protein. AUUAAUAAUCUAGGAUAUCACGUCGUUUAGACGUGAGAAGGAGAUCAUAACAUGAGGAUCACCCAUGUAUUACAUGAAGUUAAU [SSNG1/7-B3] (Eterna round: R96, puzzle: Same State NG 1)
27.8

Look at this sequence and give its reported apparent KD of MS2 coat protein. CUGAGCGAUCAAGGAUAUCACGUCGUUUAGACGUGAGAAGGUGAUCAUAACAUGAGGAUCACCCAUGUAUUACAUGAAGCUCAG [SSNG1/2-A3] (Eterna round: R96, puzzle: Same State NG 1)
462

* * *

system: K4 kissing-loop RNA reporter; test: apparent KD of K4 kissing-loop reporter; higher = weaker reporter binding; conditions: Eterna round: R107; input ligand: arginine 13.2 mM;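 also: bound reporter read as fluorescence of individual clusters on recovered sequencing chips by microscopy, with normalized cluster intensities fitted with a binding model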
Kindly return 1 (yes) if reported apparent KD of K4 kissing-loop reporter is no lower than 0.1 µM; return 0 (no) if it is lower.

Quick check, apparent KD of K4 kissing-loop reporter >= 0.1 µM? AAUGUACAGGGAAGGAGCGUAGUCCAGUGAUGUUGGAAUUAAAUACCAGUGAUGUUGGUUAUACAGGUAGGUCGCCCUAAAGUGC [KL-XARG-B20]
0 (no)

Quick check, apparent KD of K4 kissing-loop reporter >= 0.1 µM? UAUGUACACGGGUAGUGAUACAUCGAGGAAGGAGCGUGCGCAGGCACAGGUAGGUCGCCUCAGCGCACGAGUGAUGUUCGUGGGC [Veti]
1 (yes)

Quick check, apparent KD of K4 kissing-loop reporter >= 0.1 µM? AGUGUUGUAUGGCGGUUUGUCACUUAGGAUCAGGAUAUAUAAACAAAUAGAAGGGAUGGCGGAGUGAUGUUCCGCCGGCCGCCAU [FMN A Exl V7]
1 (yes)

Quick check, apparent KD of K4 kissing-loop reporter >= 0.1 µM? GAAAGAAAGUAUGAUACCAGACACCCGAGUGAUGUUCGGAGCAGAGUGAUGUUCUUUUAAGUCCCUUGGCAGCAUAAAAGAAAAG [whbob_SS_Theo_B_sa83]
1 (yes)

Quick check, apparent KD of K4 kissing-loop reporter >= 0.1 µM? AACGUUUUGUGAAGGAGCGCGAUAAGCAGUGAUGUUGCUUACUUACAAUUUAUAUUUUACACGCAGGUAGGUCGCACAAUACGUA [JR_SSArginiB_Sub017]
1 (yes)

* * *

system: MS2 coat protein; test: apparent KD of MS2 coat protein; higher = weaker reporter binding; details: Eterna round: R107; input ligand: theophylline 2 mM
Attribute measured: apparent KD of MS2 coat protein

Give recorded apparent KD of MS2 coat protein with MS2 coat protein for the following sequence: GACAUGAGGAUCACCCAUGUUGACUAUGAAGGAGCGUCGGAAAUGACAGGUAGGUCGCAUAGUCGACCUUGUAUUUUGUGUGUUU [EAA #9]
12.5 nM

Give recorded apparent KD of MS2 coat protein with MS2 coat protein for the following sequence: ACAUGAGGCUCACCCAUGUGUAGUGGGUGGCGAGGACCGGUACGGCCGCCACUCGGCAACAUGAGGAUCACCCAUGUAAGGCCCU [RNA Blob]
148 nM

Give recorded apparent KD of MS2 coat protein with MS2 coat protein for the following sequence: AUAAUAAUCAUGGGUGAAGGUCCUCGCAAACGAGGACCGGUACGGCCGCCACUCGAACAUGAGGAUCACCCAUGUGUGAGGACCU [M' - T' - T - MS2 - T'' Design 2]
74.1 nM

Give recorded apparent KD of MS2 coat protein with MS2 coat protein for the following sequence: AAUAAUAGGUGAUCUUGUGUCGUACCGUAACGAGGACCGGUACGGCCGCCACUCGAACAUGAGGAUCACCCAUGUAUGUAUGAUA [whbob_SS_trypto A_f7]
497 nM

Give recorded apparent KD of MS2 coat protein with MS2 coat protein for the following sequence: AUAAUAUAGACGGCCGCCACUAUAAACAUGAGGAACAUGAGGAUCACCCAUGUAUGAGGAUCACCUAGGACCGGGUCAUAUAUUA [AstrosExyTryB#2]
62.4 nM

Give recorded apparent KD of MS2 coat protein with MS2 coat protein for the following sequence: GGAGUAGAUGCGGCCGCCACUUUCUCAAGACACUACAUGAGGAUCACCCAUGUCCAUUCUACACUAAGGACCGGGCAUCCCAUGG [Alaa]
192 nM

* * *

tested on: MS2 coat protein; test: apparent KD of MS2 coat protein; designed switch direction (-1 OFF switch, 1 ON switch): -1; higher = weaker reporter binding; details: input ligand: none
Attribute measured: apparent KD of MS2 coat protein (nM)
Answer in nM, number only, no unit symbol.

Look at this sequence and give its reported apparent KD of MS2 coat protein. GGCGAAGUAGGAUAUACAUGAGGAUCACCCAUGUAACCUGAUGGCGUAGGUCUUCUAUGUAGAAGGACUACGCC [jl-ex3-4.39 ViennaUCT mod] (Eterna round: R97, puzzle: Exclusion 3)
18.1

Look at this sequence and give its reported apparent KD of MS2 coat protein. UCACGGGACUGAGGAUAUACAUGAACCAUUUUUGUAGAAGGCAGAAUGUUAGAUCAUACACUAAACAUGAGGAUCACCCAUGUU [JR_ExcNG1_Sub025] (Eterna round: R96, puzzle: Exclusion NG 1)
19.7

Look at this sequence and give its reported apparent KD of MS2 coat protein. AAGAUGUGAGGAUAUGUAUCGCAUAUAGAGCGAACACUAGGAUAGAAGGCACAUGAGGAUCACCCAUGUGAUCG [Eternabot (L2) Solution 73] (Eterna round: R97, puzzle: Exclusion 4)
45.3

* * *

I'd appreciate it if you could supply apparent KD of MS2 coat protein values for the items below.
tested on: MS2 coat protein; test: apparent KD of MS2 coat protein; higher = weaker reporter binding; details: Eterna round: R107; input ligand: arginine 13.2 mM
Mention the unit after the number when you answer.

Look at this sequence and give its reported apparent KD of MS2 coat protein. AGACUGUAAAGUCUACCGGUCAACAAUAAUCGAGGACCGGUACGGCCGCCACUCGAUGUGAUAUACACAUGAGGAUCACCCAUGU [Tryptophan A 16]
17.2 nM

Look at this sequence and give its reported apparent KD of MS2 coat protein. UCGAAUGCGGCGGCCGCCACUCGCGGAUAACGAUAGCUUAACAUGAGGAUCACCCAUGUGUCAUGGAGGACCGGGCCCAUACGGU [kmkmullin]
13.5 nM

Look at this sequence and give its reported apparent KD of MS2 coat protein. GCGGUCGGAGUGCGGCGUGUUCCGCUCCGUCGAGGACCGGUACGGCCGCCACUCGACAUGAGGAUCACCCAUGUCCGACCGCGCG [#1 Exclusion - Tryptophan A Attempt #5 (HarryS)]
18.4 nM

Look at this sequence and give its reported apparent KD of MS2 coat protein. GACCCAUGAGUUGUAAAAGCUCAUGGGUCGCGAGGACCGGUACGGCCGCCACUCGGCUGUACAUGAGGAUCACCCAUGUCAGGGU [#1 Same State - Tryptophan A Attempt #27 (HarryS)]
44.8 nM

Look at this sequence and give its reported apparent KD of MS2 coat protein. CCUAUGCAGUCGGCCGCCACUGUACAUGAGGAUCACCCAUGUUCUAAUAUAAUAAGAACUGAAAUCAGGACCGGGACUGUAUAGG [Ex Tryptophan B 2]
1660 nM
